// reported cell viability for each item listed
Tested on: OCI-AML2;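 further: after 48 h exposure read by CellTiter-Glo luminescence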
Assay: cell viability relative to vehicle control; higher = less cytotoxic
Details: 10 µM; SRSF2 genotype: wt/wt
# unit: % | format: bare number

COc1cc(N2CCC(N)CC2)ccc1Nc1ncc(Cl)c(-c2c[nH]c3ccccc23)n1	16.7
CN(C)C(=O)Nc1cccc(-c2ccc(N(C)C)cc2)c1	89.2
c1ccc2occc2c1	98.6

Record C/C(=C\C(=O)OCCCCCCCCC(=O)O)C[C@@H]1OC[C@H](C[C@@H]2O[C@H]2[C@@H](C)[C@H](C)O)[C@@H](O)[C@H]1O [Mupirocin] . Reported cell viability: 92

Lookup result for OC(c1cc(-c2ccc(Cl)cc2)nc2ccccc12)C1CCCCN1 (stereo not drawn) ; measured cell viability: 0.39

// provenance: the supplement of paper PMC10981050
